Values compiled from patent US9751853B2.

- assay text: Approximate solubility in test solvents (visual/gravimetric)
- Format: physicochemical
- details: organic solvent or mixture, thermodynamic from solid; other organic solvents tested, about 25° C.; read-out: approximate solubility
- Protocol: Solubility: A weighed sample of Compound A hydrochloride (about 50 mg) was treated with a known volume of a test solvent. The solvents used were either reagent or HPLC grade. The resulting mixture was agitated for at least 24 hours at about 25° C. If all of the solids appeared to be dissolved by visual inspection, the estimated solubilities were calculated based on the total volume of solvent used to give a complete solution. […] If solids were present, the solubility was measured gravimetrically. […]
value kind: solubility

What the record says about Cc1nc2cccc(N)c2c(=O)n1C1CCC(=O)NC1=O.Cl (stereo not shown) [Form A1] : solubility is < 3000 µg/mL

====

- assay text: Approximate solubility in test solvents (visual/gravimetric)
- Type: physicochemical
- details: aqueous with cosolvent or surfactant or cyclodextrin, thermodynamic from solid; EtOH/water (1:1), about 25° C.; read-out: approximate solubility
value kind: solubility

For reference, reported solubility for Cc1nc2cccc(N)c2c(=O)n1C1CCC(=O)NC1=O.Cl (stereo not shown) [Form A1] stands at 3000 to 10000 µg/mL

====

- assay text: Approximate solubility in test solvents (visual/gravimetric)
- Type: physicochemical
- details: organic solvent or mixture, thermodynamic from solid; CH2Cl2, about 25° C.; read-out: approximate solubility
- Procedure: Solubility: A weighed sample of Compound A hydrochloride (about 50 mg) was treated with a known volume of a test solvent. The solvents used were either reagent or HPLC grade. The resulting mixture was agitated for at least 24 hours at about 25° C. If all of the solids appeared to be dissolved by visual inspection, the estimated solubilities were calculated based on the total volume of solvent used to give a complete solution. […] If solids were present, the solubility was measured gravimetrically. […]
value kind: solubility

// recorded solubility for Cc1nc2cccc(N)c2c(=O)n1C1CCC(=O)NC1=O.Cl (stereo not shown) [Form A1] : 3000 to 10000 µg/mL

====

- assay text: Solubility by HPLC
- Type: physicochemical
- details: organic solvent or mixture, thermodynamic from solid; Tetrahydrofuran (THF), room temperature, 24 hr
value kind: solubility at 24 h

Per the record, Cc1nc2cccc(N)c2c(=O)n1C1CCC(=O)NC1=O.Cl (stereo not shown) [Form A1] has solubility at 24 h of < 5 µg/mL
